System: HCI09 (cells of a triple-negative luminal androgen receptor type breast cancer xenograft)
Experiment: cell viability (% of vehicle); higher = less cytotoxic
Settings: 10 µM; 72 h
measured endpoint: cell viability
Give the figure only, with no unit attached.

>>> endpoint_result("Cl.NCCc1c[nH]c2ccc(O)cc12 [Serotonin HCl]")
99.9
>>> endpoint_result("CC(=O)O[C@@]12CO[C@@H]1C[C@@H](O)[C@@]1(C)C(=O)[C@@H](O)C3=C(C)[C@@H](O)C[C@@](O)([C@@H](OC(=O)c4ccccc4)[C@H]21)C3(C)C")
99.3
>>> endpoint_result("CCNCC.O=S(=O)(O)c1cc(O)ccc1O [Ethamsylate]")
99.4
>>> endpoint_result("CC1CNCCc2ccc(Cl)cc21.Cl (centres undefined) [Lorcaserin HCl]")
100
>>> endpoint_result("CCN(C)C(=O)Oc1cccc(C(C)N(C)C)c1 (centres undefined)")
109

// field: cell viability; key: CN(C)C1C(=O)C(C(N)=O)=C(O)C2(O)C(=O)C3=C(O)c4c(O)cccc4C(C)(O)C3CC12.Cl (centres undefined) [Tetracycline Hydrochloride] ; value = 89.5

Please fill in: cell viability reported for O=C(OC1C[N+]2(CCCOc3ccccc3)CCC1CC2)C(O)(c1cccs1)c1cccs1.[Br-] (centres undefined) [Aclidinium Bromide] = 104

cell viability in this record for `CC(=O)Nc1cc([As](=O)(O)O)ccc1O` : 102

// cell viability lookup, compound = C=C1CC2C(CCC3(C)C(=O)CCC23)C2(C)C=CC(=O)C=C12 (centres undefined) , result: 101

Notebook: CCN(C)C(=O)Oc1cccc(C(C)N(C)C)c1.O=C(O)C(O)C(O)C(=O)O (centres undefined) [Rivastigmine Tartrate] , cell viability read as 127

Notebook: `C[C@]12CC[C@H]3[C@@H](CC[C@@]45O[C@@H]4C(O)=C(C#N)C[C@]35C)[C@@H]1CC[C@@H]2O` , cell viability read as 90.1

Documented cell viability of `C[C@@H]1CC[C@H]2[C@@H](C)C(=O)O[C@@H]3OC4(C)CC[C@@H]1[C@]32OO4` : 91.1

# compound `CN1[C@@H]2C[C@@H](O)C[C@H]1[C@@H]1O[C@@H]12` ; its cell viability = 110

cell viability measured on C=CCC1(O)CCC2C3CCC4=CC(=O)CCC4=C3C=CC21C (centres undefined) = 65.5

# compound C[N+]1(C)[C@@H]2C[C@@H](OC(=O)C(CO)c3ccccc3)C[C@H]1[C@@H]1O[C@@H]12.[Br-] (some centres undefined) ; its cell viability = 107

###

System: HCI09
Assay: cell viability (% of vehicle); higher = less cytotoxic
Details: 10 µM; 72 h
Overview of reported cell viability across a group of molecules:
Lab note: record just the number, no unit beside it.

>>> endpoint_result("CC1C=CC=CCCC=CC=CC=CC=CC(OC2OC(C)C(O)C(N)C2O)CC2OC(O)(CC(O)C(O)CCC(O)CC(O)CC(O)CC(=O)OC(C)C(C)C1O)CC(O)C2C(=O)O (stereo unspecified)")
128
>>> endpoint_result("CCCC[N+]1(C)[C@@H]2C[C@@H](OC(=O)[C@H](CO)c3ccccc3)C[C@H]1[C@@H]1O[C@@H]12 (stereo partly specified) [Scopolamine butylbromide]")
88.8

The molecule CCC(COC(=O)c1cc(OC)c(OC)c(OC)c1)(c1ccccc1)N(C)C (stereo unspecified) on HCI09: cell viability was 103

Test item CN(C)C1C(=O)C(C(N)=O)=C(O)C2(O)C(=O)C3=C(O)c4c(O)cccc4C(C)(O)C3C(O)C12 (stereo unspecified) ; HCI09; reported cell viability was 108

# value of cell viability, HCI09, item COc1cc2c(c(OC)c1OC)-c1ccc(OC)c(=O)cc1C(NC(C)=O)CC2 (stereo unspecified) = 120

###

System: HCI09
Experiment: cell viability (% of vehicle); higher = less cytotoxic
Settings: 10 µM; 72 h
Rule: measured cell viability below 90 gets yes (1); anything equal to or greater than 90 gets no (0).

Ask: Would you kindly verify if cell viability of O=C(OC1CC2CCC(C1)[N+]21CCCC1)C(O)(c1ccccc1)c1ccccc1.[Cl-] (configuration not stated) [Trospium chloride] is strictly less than 90?
Reply: no (0)

###

Test system: HCI01 (cells of a triple-negative basal-like breast cancer xenograft)
Assay: cell viability (% of vehicle); higher = less cytotoxic
Conditions: 10 µM; 72 h
measured endpoint: cell viability
Give the figure only, with no unit attached.

>>> endpoint_result("CCC(COC(=O)c1cc(OC)c(OC)c(OC)c1)(c1ccccc1)N(C)C (configuration not stated) [Trimebutine]")
116

cell viability recorded for this compound, CCC1(c2ccc(N)cc2)CCC(=O)NC1=O (configuration not stated) [Aminoglutethimide] , is 108

# cell viability (compound: O=c1[nH]c2ccccc2n1C1CCN(CCCC(c2ccc(F)cc2)c2ccc(F)cc2)CC1 [Pimozide] ) is 103

What the record says about C[C@@H]1CC[C@H]2[C@@H](C)C(=O)O[C@@H]3OC4(C)CC[C@@H]1[C@]32OO4 [Artemisinine] : cell viability is 125

Summary for this compound, CCN(C)C(=O)Oc1cccc(C(C)N(C)C)c1 (configuration not stated) [Rivastigmine] : cell viability is 107

Recorded cell viability (compound CC12CCC3C(CC=C4CC(O)CCC43C)C1CCC2=O (configuration not stated) [Dehydroepiandrosterone (DHEA)] ): 124

Recorded cell viability (compound CN1C2CCC1CC(OC(=O)C(CO)c1ccccc1)C2 (configuration not stated) [Hyoscyamine] ): 135

###

compounds and their reported cell viability
Test system: WHIM2 (cells of a triple-negative basal-like breast cancer xenograft);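 also: cells dissociated from PDX tumors propagated in female NSG mouse mammary fat pads, vehicle control 0.1% DMSO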
Assay: cell viability (% of vehicle); higher = less cytotoxic
Settings: 1 µM; 72 h
Hey, just send me the number, nothing else.

Example compounds with recorded cell viability:
>>> endpoint_result("CCCCCCCCCCCCCCCC[N+](C)(C)C.[Br-] [Cetrimonium Bromide (CTAB)]")
74.2
>>> endpoint_result("Cc1cc(C(C#N)c2ccc(Cl)cc2)c(Cl)cc1NC(=O)c1cc(I)cc(I)c1[O-].[Na+] (centres undefined) [Closantel Sodium]")
106
>>> endpoint_result("CCCCCCCCCCCC[N+](C)(C)CCOc1ccccc1.[Br-] [Domiphen Bromide]")
81.7

Shifting focus to the compound that follows.
Test item Cc1cc(C(C#N)c2ccc(Cl)cc2)c(Cl)cc1NC(=O)c1cc(I)cc(I)c1O (centres undefined) [Closantel] ; WHIM2; reported cell viability was 105

###

Test system: HCI03 (cells of an ER-positive luminal breast cancer xenograft)
Assay: cell viability (% of vehicle); higher = less cytotoxic
Settings: 10 µM; 72 h
measured endpoint: cell viability
Provide a numeric answer; units are not to be included.

Below, 2 compounds whose answers are already recorded.
>>> endpoint_result("CC1C=CC=CCCC=CC=CC=CC=CC(OC2OC(C)C(O)C(N)C2O)CC2OC(O)(CC(O)C(O)CCC(O)CC(O)CC(O)CC(=O)OC(C)C(C)C1O)CC(O)C2C(=O)O (stereo not drawn)")
139
>>> endpoint_result("Cc1cc(O)ccc1Cl")
120

The compound listed as CCCN1CC(CSC)CC2c3cccc4[nH]cc(c34)CC21.CS(=O)(=O)O (stereo not drawn) [Pergolide mesylate] shows cell viability equal to 92.4

Record summary for Cc1cccc(C(C)c2cnc[nH]2)c1C (stereo not drawn) : reported cell viability = 106

The recorded cell viability for entry CC(O)(CS(=O)(=O)c1ccc(F)cc1)C(=O)Nc1ccc(C#N)c(C(F)(F)F)c1 (stereo not drawn) [Bicalutamide] equals 113

So for C[N+](C)(C)CC(=O)O.[Cl-] [Betaine hydrochloride] , the logged cell viability turned out to be 123

// sample Cl.NCC(O)c1ccc(O)cc1 (racemic) [(+,-)-Octopamine HCl] , its cell viability was 119

Record summary for CCC1(c2cccc(O)c2)CCCCN(C)C1.Cl (stereo not drawn) [Meptazinol HCl] : reported cell viability = 141

###

Test system: UCD52 (cells of a triple-negative basal-like breast cancer xenograft)
Assay: cell viability (% of vehicle); higher = less cytotoxic
Conditions: 10 µM; 72 h
measured endpoint: cell viability
Please state the value as a number alone, without comment.

>>> endpoint_result("Oc1cc(Cl)ccc1Oc1ccc(Cl)cc1Cl")
97.1
>>> endpoint_result("C[N+](C)(C)CCCCCCCCCC[N+](C)(C)C.[Br-].[Br-] [Decamethonium Bromide]")
78.9
>>> endpoint_result("CCC1(c2ccc(N)cc2)CCC(=O)NC1=O (configuration not stated) [Aminoglutethimide]")
93
>>> endpoint_result("C[N+]1(C)[C@@H]2C[C@@H](OC(=O)C(CO)c3ccccc3)C[C@H]1[C@@H]1O[C@@H]12.[Br-] (some centres not stated)")
80.6
>>> endpoint_result("OC(c1ccccc1)(c1ccccc1)C1CCNCC1")
95.8
>>> endpoint_result("CCN(C)C(=O)Oc1cccc(C(C)N(C)C)c1.O=C(O)C(O)C(O)C(=O)O (configuration not stated) [Rivastigmine Tartrate]")
111

Proceeding to the next compound to report its cell viability.
Short answer on UCD52 for `O=c1cccc2n1C[C@@H]1CNC[C@H]2C1` , cell viability: 90.9
